- Test system: NCI-H1993 (Lung Adenocarcinoma)
- testName: combination Emax (second highest fraction inhibited in the dose matrix, 72 h); higher = more inhibition; extreme values may be limits of the assay
Threshold rule: combination Emax greater than or equal to 0.8 is condition met; below that, condition not met.

-- ask Given the entry C[C@@H](Oc1cc(-c2cnn(C3CCNCC3)c2)cnc1N)c1c(Cl)ccc(F)c1Cl [Crizotinib] + Cn1cnc2c(F)c(Nc3ccc(Br)cc3Cl)c(C(=O)NOCCO)cc21 [Selumetinib] (first compound max 10 µM, 7x7, partner max 10 µM) , answer whether its combination Emax meets or surpasses 0.8.
-- reply condition met

-- ask Has NC1(C(=O)N[C@@H](CCO)c2ccc(Cl)cc2)CCN(c2ncnc3[nH]ccc23)CC1 [Capivasertib] + CCN(CCO)CCCOc1ccc2c(Nc3cc(CC(=O)Nc4cccc(F)c4)[nH]n3)ncnc2c1 [AZD2811] (first compound max 10 µM, 7x7, partner max 1 µM) a recorded combination Emax greater than or equal to 0.8?
-- reply condition not met

-- ask Is the recorded value of combination Emax equal to or greater than 0.8 for this compound? COc1nnc2ccc(N3CCC(c4ccc(OCCN5CCN(C)C(=O)[C@H]5C)cc4)CC3)nn12 [AZD5153] + CC1(C)CCC(CN2CCN(c3ccc(C(=O)NS(=O)(=O)c4ccc(NCC5CCOCC5)c([N+](=O)[O-])c4)c(Oc4cnc5[nH]ccc5c4)c3)CC2)=C(c2ccc(Cl)cc2)C1 [Venetoclax] (first compound max 1 µM, 7x7, partner max 1 µM)
-- reply condition not met

-- ask Form field: combination Emax at least 0.8? Entry: CC1(C)CCC(CN2CCN(c3ccc(C(=O)NS(=O)(=O)c4ccc(NCC5CCOCC5)c([N+](=O)[O-])c4)c(Oc4cnc5[nH]ccc5c4)c3)CC2)=C(c2ccc(Cl)cc2)C1 [Venetoclax] + C=CCn1c(=O)c2cnc(Nc3ccc(N4CCN(C)CC4)cc3)nc2n1-c1cccc(C(C)(C)O)n1 [AZD1775] (first compound max 1 µM, partner max 1 µM)
-- reply condition not met

-- ask Identify whether the reported combination Emax of the following compound is 0.8 or greater: N#Cc1cnc(Nc2cc(NC[C@H]3CNCCO3)c(C(F)(F)F)cn2)cn1 [SRA737] + CCc1c2c(nc3ccc(O)cc13)-c1cc3c(c(=O)n1C2)COC(=O)[C@]3(O)CC [SN-38] (first compound max 10 µM, 7x7, partner max 0.3 µM)
-- reply condition met

Now turn to the next compound.
-- ask Given COc1cccc(OCCCN)c1-c1cc(Nc2cnc(C#N)cn2)n[nH]1 [Prexasertib] + C=CCn1c(=O)c2cnc(Nc3ccc(N4CCN(C)CC4)cc3)nc2n1-c1cccc(C(C)(C)O)n1 [AZD1775] (first compound max 1 µM, partner max 1 µM) , state whether its combination Emax is at least 0.8.
-- reply condition met

====

- Test system: SK-N-AS (Neuroblastoma)
- testName: combination Emax (second highest fraction inhibited in the dose matrix, 72 h); higher = more inhibition; extreme values may be limits of the assay
assayMetric: combination Emax
Simply state the number, no unit and no words.

Example entries and their recorded answers appear below.
Reported combination Emax (SK-N-AS (Neuroblastoma)) for entry COc1nnc2ccc(N3CCC(c4ccc(OCCN5CCN(C)C(=O)[C@H]5C)cc4)CC3)nn12 [AZD5153] + C[C@@H]1COCCN1C2=NC(=NC(=C2)C3(CC3)[S@](=N)(=O)C)C4=C5C=CNC5=NC=C4 [AZD6738] (first compound max 1 µM, 7x7, partner max 10 µM) is 0.716

combination Emax for SK-N-AS (Neuroblastoma) with input COc1cccc(OCCCN)c1-c1cc(Nc2cnc(C#N)cn2)n[nH]1 [Prexasertib] + C=CCn1c(=O)c2cnc(Nc3ccc(N4CCN(C)CC4)cc3)nc2n1-c1cccc(C(C)(C)O)n1 [AZD1775] (first compound max 1 µM, partner max 1 µM) equals 1

Others:
So the reported combination Emax for NC1(C(=O)N[C@@H](CCO)c2ccc(Cl)cc2)CCN(c2ncnc3[nH]ccc23)CC1 [Capivasertib] + CC(C)n1c(=O)n(C)c2cnc3cc(F)c(-c4ccc(OCCCN5CCCCC5)nc4)cc3c21 [AZD1390] (first compound max 10 µM, 7x7, partner max 0.3 µM) , on SK-N-AS (Neuroblastoma), turned out to be 0.157

Test item N#Cc1cnc(Nc2cc(NC[C@H]3CNCCO3)c(C(F)(F)F)cn2)cn1 [SRA737] + O=c1[nH]cc(F)c(=O)[nH]1 [5-Fluorouracil] (first compound max 10 µM, 7x7, partner max 20 µM) ; SK-N-AS (Neuroblastoma); reported combination Emax was 0.565

Reference for the values: the supplement of paper PMC11061612
